- system_name: UniProt:P04150
- Sequence (P04150 whole entry, the tested form may be a part): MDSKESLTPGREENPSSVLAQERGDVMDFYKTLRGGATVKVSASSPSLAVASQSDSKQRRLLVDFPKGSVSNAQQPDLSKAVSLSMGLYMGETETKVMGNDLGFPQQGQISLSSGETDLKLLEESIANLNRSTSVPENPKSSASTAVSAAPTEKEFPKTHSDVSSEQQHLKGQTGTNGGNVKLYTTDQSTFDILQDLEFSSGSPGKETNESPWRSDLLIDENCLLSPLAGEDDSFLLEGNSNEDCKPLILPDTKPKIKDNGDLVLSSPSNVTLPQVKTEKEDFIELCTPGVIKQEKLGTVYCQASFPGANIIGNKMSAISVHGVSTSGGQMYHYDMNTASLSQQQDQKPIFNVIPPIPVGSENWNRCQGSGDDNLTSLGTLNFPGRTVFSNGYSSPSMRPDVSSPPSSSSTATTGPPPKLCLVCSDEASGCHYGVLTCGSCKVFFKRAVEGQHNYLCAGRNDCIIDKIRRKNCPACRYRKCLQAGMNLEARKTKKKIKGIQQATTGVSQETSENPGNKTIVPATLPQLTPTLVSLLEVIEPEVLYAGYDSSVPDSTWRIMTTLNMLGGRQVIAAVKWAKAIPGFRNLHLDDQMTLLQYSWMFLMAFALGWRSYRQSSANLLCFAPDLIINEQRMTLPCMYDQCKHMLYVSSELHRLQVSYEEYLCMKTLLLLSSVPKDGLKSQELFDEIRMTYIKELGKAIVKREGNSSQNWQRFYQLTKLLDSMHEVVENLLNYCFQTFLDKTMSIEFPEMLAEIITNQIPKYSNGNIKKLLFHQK
- procedure_summary: Agonist activity at GR ligand binding domain expressed in human NP1 cells assessed as glucocorticoid response element transactivation by GAL4 luciferase reporter gene assay
- Assay type: cell-based
reported_property: EC50 (nM)
API: value field is a number in nM; no unit string.

Measured EC50, CC12CC(C)(C(=O)Nc3nccs3)C(c3ccccc31)c1ccccc12 (stereo in doubt; 17a) : 117

The recorded EC50 for entry CC12CC(C)(C(=O)Nc3nccs3)C(c3ccccc31)c1ccccc12 (stereo in doubt; 17) equals 121

---

- system_name: Mineralocorticoid receptor (Homo sapiens) (UniProt P08235)
- Sequence (P08235 whole entry): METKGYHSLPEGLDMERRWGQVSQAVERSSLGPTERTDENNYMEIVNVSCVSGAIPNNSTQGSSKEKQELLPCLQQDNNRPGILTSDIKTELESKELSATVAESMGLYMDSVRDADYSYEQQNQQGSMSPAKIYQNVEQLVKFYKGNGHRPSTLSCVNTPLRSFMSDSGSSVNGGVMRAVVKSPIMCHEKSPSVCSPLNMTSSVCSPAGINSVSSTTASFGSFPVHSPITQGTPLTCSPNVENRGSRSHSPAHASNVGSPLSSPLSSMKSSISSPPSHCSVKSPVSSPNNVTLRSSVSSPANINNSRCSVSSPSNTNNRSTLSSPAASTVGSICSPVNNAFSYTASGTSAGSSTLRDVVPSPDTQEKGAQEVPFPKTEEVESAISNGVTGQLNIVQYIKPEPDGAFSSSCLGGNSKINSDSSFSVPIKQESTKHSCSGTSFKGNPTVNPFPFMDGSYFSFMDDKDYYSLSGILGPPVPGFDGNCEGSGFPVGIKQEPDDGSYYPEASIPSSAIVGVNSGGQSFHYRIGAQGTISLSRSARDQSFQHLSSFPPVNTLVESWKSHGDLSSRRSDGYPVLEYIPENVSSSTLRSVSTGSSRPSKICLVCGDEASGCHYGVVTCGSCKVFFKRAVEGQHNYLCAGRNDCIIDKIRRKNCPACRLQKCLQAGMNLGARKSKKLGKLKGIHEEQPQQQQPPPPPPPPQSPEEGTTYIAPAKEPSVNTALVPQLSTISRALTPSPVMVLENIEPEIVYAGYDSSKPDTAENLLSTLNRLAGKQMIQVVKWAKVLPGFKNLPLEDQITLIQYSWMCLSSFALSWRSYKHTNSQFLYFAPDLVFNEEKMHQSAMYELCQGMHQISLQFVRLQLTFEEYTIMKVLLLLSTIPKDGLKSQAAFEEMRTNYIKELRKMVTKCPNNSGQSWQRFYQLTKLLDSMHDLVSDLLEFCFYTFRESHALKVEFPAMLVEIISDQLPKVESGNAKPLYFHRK
- procedure_summary: Antagonist activity at mineralocorticoid receptor in human A549 cells assessed as inhibition of 1.25 nM aldosterone-induced effect at 0.1 uM
- Assay type: functional, cell-based
reported_property: inhibition (%)
Provide only the numeric value, understood in %.

inhibition recorded for this compound, C[C@@]1(C(=O)Nc2nccs2)CC2(C#N)c3ccccc3C1c1ccccc12 , is 47

For reference, reported inhibition for CC12CC(C)(C(=O)Nc3nncs3)C(c3ccccc31)c1ccccc12 (single isomer, unassigned; isomer A) stands at 53

Lab note: measured inhibition of CC12CC(C)(C(=O)Nc3nccs3)C(c3ccccc31)c1ccccc12 (stereo in doubt; 17a) was 49

Record summary for C[C@@]1(C(=O)Nc2nccs2)CC2c3ccccc3C1c1ccccc12 : reported inhibition = 3

Record summary for Cc1cnc(NC(=O)C2(C)CC3c4ccccc4C2c2ccccc23)s1 (single isomer, unassigned; isomer A) : reported inhibition = 5

---

Record form. Attribute: Ki. Fill in for each entry.
Target chain: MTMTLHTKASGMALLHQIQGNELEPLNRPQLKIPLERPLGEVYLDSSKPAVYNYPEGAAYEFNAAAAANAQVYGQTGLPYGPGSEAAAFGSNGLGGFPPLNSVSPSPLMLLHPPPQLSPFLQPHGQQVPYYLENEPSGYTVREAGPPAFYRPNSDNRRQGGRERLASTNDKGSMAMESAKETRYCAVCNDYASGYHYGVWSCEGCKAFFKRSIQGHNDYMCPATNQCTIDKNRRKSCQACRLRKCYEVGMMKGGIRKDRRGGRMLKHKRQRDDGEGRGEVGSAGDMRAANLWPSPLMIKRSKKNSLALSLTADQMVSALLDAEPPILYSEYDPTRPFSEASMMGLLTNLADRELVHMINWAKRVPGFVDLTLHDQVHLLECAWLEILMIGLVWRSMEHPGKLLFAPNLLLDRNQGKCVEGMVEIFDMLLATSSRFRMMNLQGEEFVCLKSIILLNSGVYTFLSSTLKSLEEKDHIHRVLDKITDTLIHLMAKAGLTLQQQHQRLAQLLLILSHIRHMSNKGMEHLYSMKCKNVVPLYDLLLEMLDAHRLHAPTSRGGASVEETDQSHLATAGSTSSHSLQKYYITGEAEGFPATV

What the record says about Cc1cnc(NC(=O)C2(C)CC3c4ccccc4C2c2ccccc23)s1 (single isomer, unassigned; isomer A) : Ki is > 5 µM

// sample CC12CC(C)(C(=O)Nc3nncs3)C(c3ccccc31)c1ccccc12 (single isomer, unassigned; isomer A) , its Ki was > 5 µM

// Ki value for C[C@@]1(C(=O)Nc2nccs2)CC2(C#N)c3ccccc3C1c1ccccc12 : 26.3 µM

---

- system_name: Progesterone receptor (Homo sapiens)
- Sequence (P06401 whole entry): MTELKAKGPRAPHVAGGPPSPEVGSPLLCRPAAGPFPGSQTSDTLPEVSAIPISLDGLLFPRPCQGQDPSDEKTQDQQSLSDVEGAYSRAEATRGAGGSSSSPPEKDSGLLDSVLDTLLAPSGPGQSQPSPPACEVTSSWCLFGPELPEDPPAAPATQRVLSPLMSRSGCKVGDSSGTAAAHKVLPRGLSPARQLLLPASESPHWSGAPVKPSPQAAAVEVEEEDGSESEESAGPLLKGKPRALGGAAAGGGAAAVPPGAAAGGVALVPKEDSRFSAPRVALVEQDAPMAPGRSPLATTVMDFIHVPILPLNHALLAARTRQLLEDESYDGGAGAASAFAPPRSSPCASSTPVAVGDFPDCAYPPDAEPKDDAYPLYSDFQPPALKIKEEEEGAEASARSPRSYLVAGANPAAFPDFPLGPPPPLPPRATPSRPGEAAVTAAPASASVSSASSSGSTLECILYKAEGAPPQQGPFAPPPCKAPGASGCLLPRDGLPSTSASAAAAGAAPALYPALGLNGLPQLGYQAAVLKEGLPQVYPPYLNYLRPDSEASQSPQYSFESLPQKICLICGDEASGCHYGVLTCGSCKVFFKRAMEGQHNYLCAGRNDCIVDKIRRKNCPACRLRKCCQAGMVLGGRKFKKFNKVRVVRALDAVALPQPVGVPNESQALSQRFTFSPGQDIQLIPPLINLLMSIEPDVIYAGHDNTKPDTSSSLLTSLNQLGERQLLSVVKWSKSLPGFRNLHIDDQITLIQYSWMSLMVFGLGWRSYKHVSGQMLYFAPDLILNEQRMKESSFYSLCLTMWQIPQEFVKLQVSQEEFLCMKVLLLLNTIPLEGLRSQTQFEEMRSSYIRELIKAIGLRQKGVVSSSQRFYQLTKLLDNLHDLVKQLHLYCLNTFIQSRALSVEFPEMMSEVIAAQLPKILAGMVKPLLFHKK
reported_property: Ki (nM)
Please reply with the bare figure in nM and do not write the unit itself.

Kindly note the recorded Ki for CC12CC(C)(C(=O)Nc3nccs3)C(c3ccccc31)c1ccccc12 (stereo in doubt; 17a) , which is 31

Lookup result for C[C@@]1(C(=O)Nc2nccs2)CC2c3ccccc3C1c1ccccc12 ; measured Ki: 147

Measured Ki of CC12CC(C)(C(=O)Nc3nncs3)C(c3ccccc31)c1ccccc12 (single isomer, unassigned; isomer A) : 35

Note to self: Ki recorded for C[C@@]1(C(=O)Nc2nccs2)CC2(C#N)c3ccccc3C1c1ccccc12 was 34
